Assay: Antiplatelet activity against collagen A23187-induced platelet aggregation in human plasma preincubated for 2 mins before addition of inducer by turbidimetric method
Format: functional, cell-free
pIC50: −log10 of the molar value.
// FALSE strictly below 4 in pIC50; TRUE otherwise

[
  {
    "MOLECULE": "CSCn1c2ccccc2n2c(=O)cc(N3CCNCC3)nc12",
    "LABEL": "TRUE"
  },
  {
    "MOLECULE": "O=c1cc(N2CCNCC2)nc2n(CCN3CCOCC3)c3ccccc3n12",
    "LABEL": "TRUE"
  },
  {
    "MOLECULE": "COc1c(C)cnc(Cn2c3ccccc3n3c(=O)cc(N4CCNCC4)nc23)c1C",
    "LABEL": "TRUE"
  },
  {
    "MOLECULE": "CC(=O)Oc1ccccc1C(=O)O",
    "LABEL": "FALSE"
  },
  {
    "MOLECULE": "O=c1cc(N2CCNCC2)nc2oc3ccc(Cl)cc3n12",
    "LABEL": "TRUE"
  },
  {
    "MOLECULE": "CCN(CC)CCn1c2ccccc2n2c(=O)cc(N3CCNCC3)nc12",
    "LABEL": "TRUE"
  },
  {
    "MOLECULE": "O=c1cc(N2CCNCC2)nc2n(CCc3ccccc3)c3ccccc3n12",
    "LABEL": "TRUE"
  },
  {
    "MOLECULE": "CCCn1c2ccccc2n2c(=O)cc(N3CCNCC3)nc12",
    "LABEL": "TRUE"
  },
  {
    "MOLECULE": "CC(C)n1c2ccccc2n2c(=O)cc(N3CCNCC3)nc12",
    "LABEL": "FALSE"
  },
  {
    "MOLECULE": "CC(c1ccccc1)n1c2ccccc2n2c(=O)cc(N3CCNCC3)nc12 (stereo unspecified)",
    "LABEL": "FALSE"
  },
  {
    "MOLECULE": "O=c1cc(N2CCNCC2)nc2n(Cc3ccncc3)c3ccccc3n12",
    "LABEL": "TRUE"
  },
  {
    "MOLECULE": "O=c1cc(N2CCNCC2)nc2n(Cc3cccnc3)c3ccccc3n12",
    "LABEL": "TRUE"
  },
  {
    "MOLECULE": "CN(C)CCn1c2ccccc2n2c(=O)cc(N3CCNCC3)nc12",
    "LABEL": "TRUE"
  },
  {
    "MOLECULE": "Cc1[nH]c(=O)c(C#N)cc1-c1ccncc1",
    "LABEL": "TRUE"
  },
  {
    "MOLECULE": "O=c1cc(N2CCNCC2)nc2n(Cc3ccccc3)c3ccccc3n12",
    "LABEL": "FALSE"
  },
  {
    "MOLECULE": "CCN(CC)c1cc(=O)nc2n(CC)c3ccccc3n12",
    "LABEL": "FALSE"
  },
  {
    "MOLECULE": "O=c1cc(N2CCNCC2)nc2n(Cc3ccccn3)c3ccccc3n12",
    "LABEL": "TRUE"
  },
  {
    "MOLECULE": "O=c1cc(N2CCNCC2)nc2n(CCN3CCCC3)c3ccccc3n12",
    "LABEL": "TRUE"
  },
  {
    "MOLECULE": "CCn1c2ccccc2n2c(=O)cc(N3CCNCC3)nc12",
    "LABEL": "FALSE"
  },
  {
    "MOLECULE": "CCN(CC)c1cc(=O)n2c3ccccc3n(CC)c2n1",
    "LABEL": "FALSE"
  }
]

// provenance: ChEMBL document CHEMBL2331342
